- System: U2OS
- assay text: Incucyte cell viability with U2OS; further: unitless GR value; below 1 slowed growth and below 0 cell loss
- Format: toxicity, cell-based
- stated conditions: human, 12 h, 10 µM, compound concentration 10 uM, replicate number 2, timepoint 12 hours
Please use Met for Growth Rate under 0.8 and Not met for everything else, ties included.

q: In the record for CNc1nc(NCc2ncccn2)c2c(-c3ccc4ncccc4c3)c[nH]c2n1 , is Growth Rate less than 0.8?
a: Not met

q: Then this molecule: CNC[C@H](O)c1ccc(O)c(O)c1 [EPINEPHRINE]
a: Met

q: Then this molecule: CN(C)[C@H]1CN(C2CCc3cccc(F)c32)C[C@@H]1c1ccc(N2CCN(S(C)(=O)=O)CC2)cc1 (some centres undefined)
a: Not met

q: Then this molecule: C[C@@H](c1ccc(F)cc1)n1nnc2cnc3ccc(-c4ccc5ocnc5c4)cc3c21
a: Not met

q: Then this molecule: CCCCC/C=C\C/C=C\C/C=C\C/C=C\CCCC(=O)NCC(=O)O
a: Not met

q: Then this molecule: Cn1cc(-c2ccc3occ(-c4cccc(-c5ccncc5)c4)c3n2)cn1
a: Met

q: Then this molecule: C[C@]12N[C@H](Cc3ccccc31)c1ccccc12
a: Met

q: Then this molecule: Cc1ccc(Cn2nc(C(=O)N[C@@H]3C(C)(C)[C@@H]4CC[C@@]3(C)C4)cc2-c2ccc(Cl)c(C)c2)cc1
a: Met
